inhibition: recorded values
target: Nuclear receptor subfamily 5 group A member 2 (Homo sapiens); assay: LRH-1 (NR5A2) inverse agonists, retest, confirmation, cell-based, luminescence (AID 651613); details: cell-based LRH-1 luciferase reporter, inverse agonism; at 3.6 µM; hits give high values;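 also: HEK293T cells co-transfected with LRH-1 and StAR promoter luciferase reporter; 0% = vehicle wells and 100% = parental cells lacking receptor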
Just the number please, in %, no unit attached.

| molecule | result_units | inhibition |
| --- | --- | --- |
| COC(=O)c1ccc(NC(=O)CN2C(=O)CNC2=O)cc1 | % | 62.9 |
| Cc1cc(C)c(S(=O)(=O)/N=C2/C=C(Sc3ncn[nH]3)C(=O)c3ccccc32)cc1C | % | 77.8 |
| COc1ccccc1-c1cc(NC=O)c2ncc(-c3ccc(S(C)(=O)=O)cc3)n2c1 | % | 42.8 |
| COc1cccc(/C=N/Nc2ccc(C(=O)O)cc2)c1O | % | 68.3 |
| CN=c1scc(-c2cccs2)n1/N=C/c1ccccc1O | % | 90.4 |
| CCOC(=O)C1CCN(Cc2cc(Cl)c3ccccc3c2O)CC1 | % | 10.1 |
| Cn1cnc([N+](=O)[O-])c1Sc1nc(N)nc2c1ncn2C1OC(CO)C(O)C1O (stereo not drawn) | % | 52 |
| Cc1ccc(NC(=O)CCl)c(C)c1 | % | 59.3 |

# O=C(NCc1cccnc1)c1ccc([N+](=O)[O-])o1 with Nuclear receptor subfamily 5 group A member 2 (Homo sapiens): inhibition is 62.7

Param item: NS(=O)(=O)c1ccc(CCNC(=O)COc2ccc3c4c(c(=O)oc3c2)CCC4)cc1 ; param system: Nuclear receptor subfamily 5 group A member 2 (Homo sapiens); output inhibition: 41.7

Sample CCOc1ccc(NC(=O)CSc2nnc(C(C)C)n2CC)cc1 , system: Nuclear receptor subfamily 5 group A member 2 (Homo sapiens). Its inhibition is 49.3

inhibition value, target or system Nuclear receptor subfamily 5 group A member 2 (Homo sapiens), for CC(C)(C)C(=O)Nc1cc2nn(-c3ccccc3)nc2cc1Cl : 19.3
